assayedTarget: membrane-bound CD73 (membrane preparation of MDA-MB-231 cells) (Homo sapiens)
Sequence (P21589 27-549): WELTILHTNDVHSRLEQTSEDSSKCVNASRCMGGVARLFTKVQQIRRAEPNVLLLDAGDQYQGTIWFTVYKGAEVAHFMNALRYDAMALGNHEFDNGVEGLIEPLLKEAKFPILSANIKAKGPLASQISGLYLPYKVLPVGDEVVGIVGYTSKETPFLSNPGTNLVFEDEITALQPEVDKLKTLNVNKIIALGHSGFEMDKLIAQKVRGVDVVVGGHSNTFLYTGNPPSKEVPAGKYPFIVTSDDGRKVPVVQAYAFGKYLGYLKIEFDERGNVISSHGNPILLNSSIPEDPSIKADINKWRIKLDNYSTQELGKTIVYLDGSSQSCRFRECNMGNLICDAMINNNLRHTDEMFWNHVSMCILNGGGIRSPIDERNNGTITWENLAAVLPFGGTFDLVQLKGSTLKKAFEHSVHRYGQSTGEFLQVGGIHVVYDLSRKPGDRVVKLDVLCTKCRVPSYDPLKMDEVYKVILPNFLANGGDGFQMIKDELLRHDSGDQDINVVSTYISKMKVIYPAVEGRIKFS
measuredParameter: pKi
# pKi = -log10(concentration in molar units)

The reported pKi value, membrane-bound CD73 (membrane preparation of MDA-MB-231 cells) (Homo sapiens), for `Cn1c(=O)n([C@@H]2O[C@H](COP(=O)(O)CP(=O)(O)O)[C@@H](O)[C@H]2O)cc/c1=N/OCc1ccccc1` reads 8.10
